target: Protein S100-A4 (Homo sapiens) (UniProt P26447); test: inhibitors of S100A4-myosin IIA peptide binding, primary screen, biochemical, fluorescence polarization, TAMRA-MyoIIA peptide (AID 652163); conditions: at 10.7 µM, active compounds read high
Sequence (P26447 whole entry, looked up): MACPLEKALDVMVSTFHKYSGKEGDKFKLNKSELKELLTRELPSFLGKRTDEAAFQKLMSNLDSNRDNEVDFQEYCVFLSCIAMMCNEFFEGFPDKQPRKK
About 500 (0.14%) of roughly 360,000 compounds were called active. The list comes from a sample in which actives are over-represented; it also holds close analogues and randomly drawn compounds.
OBSERVATION_TYPE: inhibition (%)
Number only, in %; omit the unit.

In the examples that follow, each entry is paired with its recorded inhibition.
[
  {
    "INPUT_SMILES": "COC(=O)c1cc2c(c3c4ccccc4n(S(=O)(=O)c4cccc(C)c4)c13)C(=O)N(Cc1ccccc1)C2",
    "inhibition [%]": -0.199
  },
  {
    "INPUT_SMILES": "CCCNC(=O)N1C[C@H](O)COC[C@H]2O[C@@H](CC(=O)NCc3ccncn3)CC[C@@H]21",
    "inhibition [%]": 1.59
  },
  {
    "INPUT_SMILES": "O=C(C[C@H]1CC[C@@H]2[C@H](COC[C@H](O)CN2CCC(F)(F)F)O1)NCC1CC1",
    "inhibition [%]": -3.95
  },
  {
    "INPUT_SMILES": "COc1ccc(CN(C)C[C@@H]2OCCCC[C@H](C)Oc3ccc(NS(=O)(=O)c4ccc(F)cc4)cc3C(=O)N([C@@H](C)CO)C[C@@H]2C)cc1",
    "inhibition [%]": -2.85
  },
  {
    "INPUT_SMILES": "C[C@H]1CCCCO[C@@H](CN(C)C(=O)C2CCCCC2)[C@@H](C)CN([C@@H](C)CO)C(=O)c2cc(NS(=O)(=O)c3cccs3)ccc2O1",
    "inhibition [%]": -3.65
  }
]

## Input Suppose we examine the compound CO[C@H]1CN(C)C(=O)c2ccc(NC(C)=O)cc2OC[C@H](C)N(C(=O)c2ccccc2)C[C@H]1C ; what inhibition value has been reported?
## Output -4.17

## Input Suppose we examine the compound Cc1noc(C)c1NC(=O)N(C)C[C@@H]1OCCCC[C@H](C)Oc2ccc(NC(=O)CCC(F)(F)F)cc2C(=O)N([C@@H](C)CO)C[C@@H]1C ; what inhibition value has been reported?
## Output 5.68

====

biological target: Protein S100-A4 (Homo sapiens); test: inhibitors of S100A4-myosin IIA peptide binding, primary screen, biochemical, fluorescence polarization, TAMRA-MyoIIA peptide (AID 652163); details: at 10.7 µM
The whole screen tested about 360,000 compounds, of which about 500 (0.14%) were called active.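 How the source made its calls: active means mean inhibition of at least 70% across replicates, with every replicate also reaching that level; inconclusive means mean inhibition reaches 70% but some replicates fall short; inactive means mean inhibition below 70%.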 Shown is part of a subset that was picked to be rich in actives.
Your answer must be one of the following: active, inactive

Reference set (2 entries):
[
  {
    "INPUT_SMILES": "COCC#Cc1cnc2c(c1)C(=O)N([C@H](C)CO)C[C@@H](C)[C@@H](CN(C)C(=O)Nc1cccc(F)c1)O2",
    "CLASS_LABEL": "inactive"
  },
  {
    "INPUT_SMILES": "CC(C)NC(=O)Nc1ccc2c(c1)C(=O)N([C@@H](C)CO)C[C@@H](C)[C@H](CN(C)C(=O)Cc1ccccc1)OCCCC[C@H](C)O2",
    "CLASS_LABEL": "inactive"
  }
]

Attention now turns to another entry.
## Input Call for entry Cc1noc(C)c1NC(=O)Nc1ccc2c(c1)C(=O)N([C@H](C)CO)C[C@@H](C)[C@@H](CN(C)S(=O)(=O)c1ccc(Cl)cc1)OCCCC[C@H](C)O2 :
## Output active

====

biological target: Protein S100-A4 (Homo sapiens) (UniProt P26447); experiment: inhibitors of S100A4-myosin IIA peptide binding, primary screen, biochemical, fluorescence polarization, TAMRA-MyoIIA peptide (AID 652163); conditions: at 10.7 µM
Screen size: about 360,000 compounds; about 500 (0.14%) were called active.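 How the source made its calls: active means mean inhibition of at least 70% across replicates, with every replicate also reaching that level; inconclusive means mean inhibition reaches 70% but some replicates fall short; inactive means mean inhibition below 70%.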 For the sample, actives were picked, then their nearest neighbours and some compounds at random.
Your answer must be one of the following: Y (active), N (inactive)

Reference set (6 entries):
[
  {
    "INPUT_SMILES": "C[C@H]1CN([C@@H](C)CO)C(=O)c2cccc(NC(=O)Nc3ccccc3)c2O[C@H]1CN(C)Cc1ccc(Oc2ccccc2)cc1",
    "CLASS_LABEL": "N"
  },
  {
    "INPUT_SMILES": "C[C@@H]1CN([C@@H](C)CO)C(=O)c2cc(NC(=O)c3ccncc3)ccc2O[C@H]1CN(C)Cc1ccc(C(=O)O)cc1",
    "CLASS_LABEL": "N"
  },
  {
    "INPUT_SMILES": "C[C@@H]1CN([C@@H](C)CO)C(=O)c2cccc(NC(=O)Nc3ccccc3)c2O[C@H]1CN(C)Cc1ccccc1",
    "CLASS_LABEL": "N"
  },
  {
    "INPUT_SMILES": "CC(=O)N1Cc2cc(C(=O)NCc3cc(F)cc(F)c3)nc(-c3cccc(C4=CCCC4)c3)c2[C@@H]1CCO",
    "CLASS_LABEL": "N"
  },
  {
    "INPUT_SMILES": "COc1ccc(CN(C)C[C@H]2Oc3c(NS(=O)(=O)c4ccc(C)cc4)cccc3C(=O)N([C@@H](C)CO)C[C@@H]2C)cc1",
    "CLASS_LABEL": "N"
  },
  {
    "INPUT_SMILES": "C[C@H]1CN([C@@H](C)CO)C(=O)c2cccc(NC(=O)c3ccncc3)c2O[C@@H]1CN(C)C",
    "CLASS_LABEL": "N"
  }
]

Attention now turns to another entry.
## Input Call for entry COc1ccc(CN(C)C[C@H]2Oc3c(NC(=O)Nc4ccccc4)cccc3C(=O)N([C@@H](C)CO)C[C@@H]2C)cc1 :
## Output Y

====

biological target: Protein S100-A4 (Homo sapiens) (UniProt P26447); assay: inhibitors of S100A4-myosin IIA peptide binding, primary screen, biochemical, fluorescence polarization, TAMRA-MyoIIA peptide (AID 652163); settings: at 10.7 µM
About 500 (0.14%) of roughly 360,000 compounds were called active.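 The calls were made as follows: active = mean inhibition of at least 70% across replicates, with every replicate also reaching that level; inconclusive = mean inhibition reaches 70% but some replicates fall short; inactive = mean inhibition below 70%.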 Shown is part of a subset that was picked to be rich in actives.
Your answer must be one of the following: active, inactive

Reference set (3 entries):
[
  {
    "INPUT_SMILES": "CN1CCN(C(=O)C[C@@H]2C=C[C@@H](NS(=O)(=O)c3cccc(F)c3)[C@@H](CO)O2)CC1",
    "TARGET_OR_SYSTEM": "Protein S100-A4 (Homo sapiens) (UniProt P26447)",
    "CLASS_LABEL": "active"
  },
  {
    "INPUT_SMILES": "COc1ccccc1S(=O)(=O)N[C@@H]1C=C[C@H](CC(=O)N2CCN(C)CC2)O[C@@H]1CO",
    "TARGET_OR_SYSTEM": "Protein S100-A4 (Homo sapiens) (UniProt P26447)",
    "CLASS_LABEL": "inactive"
  },
  {
    "INPUT_SMILES": "O=C(C[C@@H]1C=C[C@@H](NS(=O)(=O)c2ccccc2)[C@H](CO)O1)N1CCN(c2ccccc2)CC1",
    "TARGET_OR_SYSTEM": "Protein S100-A4 (Homo sapiens) (UniProt P26447)",
    "CLASS_LABEL": "inactive"
  }
]

Attention now turns to another entry.
## Input Call for entry O=C(C[C@@H]1CC[C@H]2[C@@H](COC[C@H](O)CN2S(=O)(=O)c2ccc(F)cc2)O1)N[C@H]1CCN(Cc2ccccc2)C1 :
## Output inactive

====

biological target: Protein S100-A4 (Homo sapiens) (UniProt P26447); assay: inhibitors of S100A4-myosin IIA peptide binding, primary screen, biochemical, fluorescence polarization, TAMRA-MyoIIA peptide (AID 652163); details: at 10.7 µM, active compounds read high
Out of some 360,000 compounds screened, about 500 (0.14%) were called active. The entries come from a sample that favours actives as a whole.
OBSERVATION_TYPE: inhibition (%)
Number only, in %; omit the unit.

[
  {
    "INPUT_SMILES": "O=C(C[C@@H]1CC[C@@H](NC(=O)Nc2ccc(F)cc2)[C@@H](CO)O1)NCCN1CCCC1",
    "TARGET_OR_SYSTEM": "Protein S100-A4 (Homo sapiens) (UniProt P26447)",
    "inhibition (%)": -3.14
  },
  {
    "INPUT_SMILES": "CO[C@H]1CN(C)C(=O)c2ccc(NC(=O)c3nc4ccccc4s3)cc2OC[C@H](C)N(Cc2cccnc2)C[C@@H]1C",
    "TARGET_OR_SYSTEM": "Protein S100-A4 (Homo sapiens) (UniProt P26447)",
    "inhibition (%)": -1.61
  },
  {
    "INPUT_SMILES": "CNS(=O)(=O)c1ccc2c(c1)[nH]c(=S)n2C",
    "TARGET_OR_SYSTEM": "Protein S100-A4 (Homo sapiens) (UniProt P26447)",
    "inhibition (%)": 82.4
  },
  {
    "INPUT_SMILES": "COCC(=O)N1[C@H](CO)[C@H](c2ccccc2)C12CN(C(=O)NC1CCCCC1)C2",
    "TARGET_OR_SYSTEM": "Protein S100-A4 (Homo sapiens) (UniProt P26447)",
    "inhibition (%)": 14.7
  },
  {
    "INPUT_SMILES": "COc1cccc(C#Cc2cnc3c(c2)C(=O)N([C@@H](C)CO)C[C@H](C)[C@H](CN(C)CC2CC2)O3)c1",
    "TARGET_OR_SYSTEM": "Protein S100-A4 (Homo sapiens) (UniProt P26447)",
    "inhibition (%)": -46.8
  },
  {
    "INPUT_SMILES": "CCCNC(=O)N1CC(=O)N2[C@H](CO)[C@@H](c3ccc(-c4ccc(F)cc4)cc3)[C@H]2C1",
    "TARGET_OR_SYSTEM": "Protein S100-A4 (Homo sapiens) (UniProt P26447)",
    "inhibition (%)": 120
  },
  {
    "INPUT_SMILES": "COc1ccc2c3c([nH]c2c1)[C@H](CO)N(C(=O)Nc1cccc(F)c1)CC31CCN(S(=O)(=O)c2ccccc2)CC1",
    "TARGET_OR_SYSTEM": "Protein S100-A4 (Homo sapiens) (UniProt P26447)",
    "inhibition (%)": -4.14
  },
  {
    "INPUT_SMILES": "COc1cccc(C(=O)Nc2ccc3c(c2)C(=O)N(C)[C@H]2CC[C@@H](CC(=O)N[C@H](C)c4ccccc4)O[C@H]2CO3)c1",
    "TARGET_OR_SYSTEM": "Protein S100-A4 (Homo sapiens) (UniProt P26447)",
    "inhibition (%)": -0.71
  }
]

## Input Give inhibition (Protein S100-A4 (Homo sapiens) (UniProt P26447)) of the following compound: C[C@@H](NC(=O)C[C@H]1C[C@@H]2c3cc(NC(=O)C4CCC4)ccc3O[C@@H]2[C@@H](CO)O1)c1ccccc1
## Output 8.72

## Input Give inhibition (Protein S100-A4 (Homo sapiens) (UniProt P26447)) of the following compound: COc1ccc(S(=O)(=O)Nc2ccc3c(c2)C(=O)N([C@@H](C)CO)C[C@H](C)[C@H](CN(C)Cc2ccc4c(c2)OCO4)OCCCC[C@H](C)O3)cc1
## Output -9.48
